- Measurement Target: NleB1 (Escherichia coli)
- Construct: GST-EHEC-NleB1 in pET42a (GST/His tagged), expressed in E. coli BL21 (DE3), nickel purified; some tag cleavage noted
- Study Conditions: 80 µM; inhibitor
Output YES for % NleB1 inhibition (µM compound) / 80 not less than 40%; output NO otherwise.

Entry O=Cc1cccc(OCc2cn(CC(=O)c3ccc(O)cc3)nn2)c1 [KUC104114N] : is its % NleB1 inhibition (µM compound) / 80 no less than 40%?
YES

Entry CCCCCCC(=O)N1C/C=C\C(c2ccc(OC)cc2)N(Cc2ccc(F)cc2)C(=O)[C@@H]1Cc1ccccc1 (stereo partly drawn) [KUC101608N] : is its % NleB1 inhibition (µM compound) / 80 no less than 40%?
NO

Entry CC(C)CC1C(=O)N(Cc2cn(CCC3OCCCO3)nn2)CCS(=O)(=O)N1Cc1ccc(-c2ccc(F)nc2)cc1 (stereo not drawn) [KUC105151N] : is its % NleB1 inhibition (µM compound) / 80 no less than 40%?
YES

Entry O=c1cc(-c2ccccc2Cl)oc2c(NS(=O)(=O)c3cc(Cl)cc(Cl)c3O)ccc(O)c12 [KUC100066N] : is its % NleB1 inhibition (µM compound) / 80 no less than 40%?
YES

Entry Cc1ccc2c(c1)C1CS(=O)(=O)N(C3CCCC3)C(=O)N1C2 (stereo not drawn) [KUC109525N] : is its % NleB1 inhibition (µM compound) / 80 no less than 40%?
NO

Entry CC(C)CN1CCC(=O)N(CCC#N)CC1 [KUC102485N] : is its % NleB1 inhibition (µM compound) / 80 no less than 40%?
NO

Entry O=C(NC1CCC(=O)N(CCSc2ccccc2)CC1)OCc1ccccc1 (stereo not drawn) [KUC102830N] : is its % NleB1 inhibition (µM compound) / 80 no less than 40%?
NO

Entry O=C(c1ccc([N+](=O)[O-])cc1)N1[C@H](COCc2ccccc2)C=CS1(=O)=O [KUC107029N] : is its % NleB1 inhibition (µM compound) / 80 no less than 40%?
YES

Entry C[C@H]1CC[C@]2(CCC(=O)N2CCCOC(=O)c2ccccc2)CC1 [KUC110967N] : is its % NleB1 inhibition (µM compound) / 80 no less than 40%?
YES

Entry C[C@@H]1NC(=O)O[C@H]1c1ccco1 [KUC103195N] : is its % NleB1 inhibition (µM compound) / 80 no less than 40%?
NO

Entry O=C1CCC[C@@H]2Cc3nc4ccc(O)cc4cc3[C@@H]3CCN1[C@H]23 [KUC103038N] : is its % NleB1 inhibition (µM compound) / 80 no less than 40%?
YES

Entry CC(=O)Nc1ccc(OCc2cn(CC(=O)c3ccc(O)cc3)nn2)cc1 [KUC104101N] : is its % NleB1 inhibition (µM compound) / 80 no less than 40%?
YES

Entry CCC[C@H]1[C@@H](OC(=O)NCc2ccc(OC)cc2)CC[C@@]23CCCN2C(=O)CCC[C@@H]13 [KUC112136N] : is its % NleB1 inhibition (µM compound) / 80 no less than 40%?
NO

Entry C[C@@H](NS(=O)(=O)c1cc(Cl)ccc1F)[C@H](O)c1ccccc1 [KUC103993N] : is its % NleB1 inhibition (µM compound) / 80 no less than 40%?
NO

Entry O=C(O)c1cc(-c2ccc(-c3c(-c4ccco4)noc3-c3ccccc3)cc2)nc2ccccc12 [KUC102644N] : is its % NleB1 inhibition (µM compound) / 80 no less than 40%?
YES

Entry O=S1(=O)CCOC[C@H](c2ccccc2)N1Cc1ccc(Cl)c(Cl)c1 [KUC102739N] : is its % NleB1 inhibition (µM compound) / 80 no less than 40%?
NO

Entry O=C(Cn1cc(COc2ccccc2C(F)(F)F)nn1)c1ccc(O)cc1 [KUC104085N] : is its % NleB1 inhibition (µM compound) / 80 no less than 40%?
YES
